Target: SMN2 pre-mRNA
Experiment: Modulation of SMN2 mRNA FL splicing in human spinal muscular atrophy patient fibroblasts assessed as SMN2 protein potency incubated for 48 hrs by mesoscale discovery assay
Please provide measured EC50 for the entries that follow.
Express it in nM; write the number only.

Asked: Please give the measured EC50 for this molecule: CN(c1nnc(-c2ccc(-c3cnn(C)c3)cc2O)s1)[C@H]1C[C@@H]2CCC[C@@H](N2)[C@H]1F
Given back: 0.01

Asked: Please give the measured EC50 for this molecule: CN(c1nnc(-c2ccc(-c3cnn(CF)c3)cc2O)s1)[C@@H]1C[C@H]2CC[C@H](N2)[C@@H]1F
Given back: 0.01

Asked: Please give the measured EC50 for this molecule: CN(c1nnc(-c2ccc(-c3cnn(C)c3)cc2O)s1)[C@@H]1C[C@H]2CC[C@H](N2)[C@@H]1F
Given back: 0.01

Asked: Please give the measured EC50 for this molecule: CN(c1nnc(-c2ccc(-c3cn[nH]c3)cc2O)s1)[C@@H]1C[C@H]2CC[C@H](N2)[C@@H]1F
Given back: 0.01

Asked: Please give the measured EC50 for this molecule: COc1cc(-c2ccc(-c3nnc(N(C4CC4)[C@@H]4C[C@H]5CC[C@H](N5)C4F)s3)c(O)c2)cc(F)n1 (stereo partly specified)
Given back: 0.01

Asked: Please give the measured EC50 for this molecule: CN(c1nnc(-c2cc(F)c(-c3cnn(C)c3)cc2O)s1)[C@@H]1C[C@H]2CC[C@H](N2)[C@@H]1F
Given back: 0.01

---

Please provide measured EC50 for the entries that follow.
Biological target: SMN2 pre-mRNA
Assay: Modulation of SMN2 mRNA FL splicing in human spinal muscular atrophy patient fibroblasts incubated for 24 hrs by qPCR analysis
Format: tissue-based
Express it in nM; write the number only.

Asked: Please give the measured EC50 for this compound: CN(c1nnc(-c2cc(F)c(-c3cnn(C)c3)cc2O)s1)[C@@H]1C[C@H]2CC[C@H](N2)[C@@H]1F
Given back: 16

Asked: Please give the measured EC50 for this compound: CN(c1nnc(-c2ccc(-c3cnn(C)c3)cc2O)s1)[C@@H]1C[C@H]2CC[C@H](N2)[C@@H]1F
Given back: 16

Asked: Please give the measured EC50 for this compound: COc1cc(-c2ccc(-c3nnc(N(C4CC4)[C@@H]4C[C@H]5CC[C@H](N5)C4F)s3)c(O)c2)cc(F)n1 (stereo partly specified)
Given back: 16

Asked: Please give the measured EC50 for this compound: CN(c1nnc(-c2ccc(-c3cnn(CF)c3)cc2O)s1)[C@@H]1C[C@H]2CC[C@H](N2)[C@@H]1F
Given back: 16

Asked: Please give the measured EC50 for this compound: CN(c1nnc(-c2ccc(-c3cnn(C)c3)cc2O)s1)[C@H]1C[C@@H]2CCC[C@@H](N2)[C@H]1F
Given back: 16

Asked: Please give the measured EC50 for this compound: CN(c1nnc(-c2ccc(-c3cn[nH]c3)cc2O)s1)[C@@H]1C[C@H]2CC[C@H](N2)[C@@H]1F
Given back: 0.01
